- SYSTEM: Short transient receptor potential channel 4 (Mus musculus, UniProt Q9QUQ5)
- Sequence (Q9QUQ5 whole entry): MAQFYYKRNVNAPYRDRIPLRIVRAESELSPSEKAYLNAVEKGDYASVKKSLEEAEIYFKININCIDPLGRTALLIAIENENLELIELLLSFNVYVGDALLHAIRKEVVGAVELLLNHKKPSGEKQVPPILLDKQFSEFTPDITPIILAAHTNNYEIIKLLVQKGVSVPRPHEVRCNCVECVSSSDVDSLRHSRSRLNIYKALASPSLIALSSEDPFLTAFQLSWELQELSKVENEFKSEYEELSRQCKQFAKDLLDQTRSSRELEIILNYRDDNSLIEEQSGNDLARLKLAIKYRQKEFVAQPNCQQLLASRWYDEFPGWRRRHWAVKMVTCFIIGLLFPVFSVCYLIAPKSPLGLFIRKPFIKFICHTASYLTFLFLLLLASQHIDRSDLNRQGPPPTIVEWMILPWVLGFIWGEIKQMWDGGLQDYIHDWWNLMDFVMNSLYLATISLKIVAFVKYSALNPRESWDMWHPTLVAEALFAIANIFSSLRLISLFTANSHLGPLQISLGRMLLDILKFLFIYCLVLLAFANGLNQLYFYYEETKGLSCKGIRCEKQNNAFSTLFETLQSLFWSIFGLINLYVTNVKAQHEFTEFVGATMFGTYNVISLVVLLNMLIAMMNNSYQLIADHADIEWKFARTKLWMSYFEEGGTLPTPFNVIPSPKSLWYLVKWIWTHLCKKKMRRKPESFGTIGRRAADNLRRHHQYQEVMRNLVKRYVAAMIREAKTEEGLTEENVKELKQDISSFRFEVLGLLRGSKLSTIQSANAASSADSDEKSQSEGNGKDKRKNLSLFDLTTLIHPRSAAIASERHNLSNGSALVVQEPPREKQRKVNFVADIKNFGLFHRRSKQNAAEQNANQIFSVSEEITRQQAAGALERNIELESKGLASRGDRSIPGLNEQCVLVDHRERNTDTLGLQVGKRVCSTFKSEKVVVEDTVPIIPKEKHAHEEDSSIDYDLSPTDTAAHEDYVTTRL
- EXPERIMENT: block of DAMGO-driven TRPC4 calcium entry – cell-based, HEK293 TRPC4/mu-opioid, Fluo-4 calcium, dose response (AID 434942);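 also: potency of inhibitors blocking the TRPC4 calcium response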
- Assay type: functional
Activity calls are given as the source filed them.
METRIC_NAME: EC50

compound=CCc1c(C(=O)N2CCCN(C)CC2)csc1C reported_measurement="5.96 µM (active)"
compound="C=CCc1ccccc1OCC(CN1CCCCC1)OC(C)=O (configuration not stated)" reported_measurement="5.31 µM (active)"
compound="CC(C)(C)CC(C)(C)NCC(O)COc1ccc2c(c1)CCC2 (configuration not stated)" reported_measurement="3.35 µM (active)"
compound=Cc1ccc(N=C(S)N(CCCN(C)C)Cc2cc3cc4c(cc3nc2O)OCO4)c(C)c1 reported_measurement="3.35 µM (active)"
compound="COc1ccc(CN(C)C(=O)c2ccc(NC(=O)CC3SC(N4CCCC4)=NC3=O)cc2)c(OC)c1 (configuration not stated)" reported_measurement="2.37 µM (active)"
compound=CN(Cc1ccccc1)C(=O)CSc1nnc(-c2ccco2)n1-c1ccccc1 reported_measurement="1.68 µM (active)"
compound="CN(C)CC(CCC(CN(C)C)C(O)(c1ccccc1)c1ccccc1)C(O)(c1ccccc1)c1ccccc1 (configuration not stated)" reported_measurement="1.68 µM (active)"

###

- SYSTEM: UniProt:Q8IL11
- Sequence (Q8IL11 whole entry): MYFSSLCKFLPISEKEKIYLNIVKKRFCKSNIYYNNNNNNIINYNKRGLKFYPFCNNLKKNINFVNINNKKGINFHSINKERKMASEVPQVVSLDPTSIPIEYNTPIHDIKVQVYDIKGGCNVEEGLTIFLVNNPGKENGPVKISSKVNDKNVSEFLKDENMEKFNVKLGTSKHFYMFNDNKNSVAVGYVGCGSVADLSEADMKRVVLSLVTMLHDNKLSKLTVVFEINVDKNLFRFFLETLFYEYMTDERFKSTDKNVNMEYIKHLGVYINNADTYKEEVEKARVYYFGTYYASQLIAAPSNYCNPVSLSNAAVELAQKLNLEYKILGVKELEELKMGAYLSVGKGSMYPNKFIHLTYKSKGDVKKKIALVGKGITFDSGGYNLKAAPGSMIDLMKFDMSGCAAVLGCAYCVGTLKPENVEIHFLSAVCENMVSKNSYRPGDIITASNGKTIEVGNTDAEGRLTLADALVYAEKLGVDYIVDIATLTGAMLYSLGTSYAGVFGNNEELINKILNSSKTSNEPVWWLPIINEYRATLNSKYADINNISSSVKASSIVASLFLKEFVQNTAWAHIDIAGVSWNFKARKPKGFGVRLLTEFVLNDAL
- EXPERIMENT: P. falciparum M17LAP inhibitors, primary screen, biochemical, fluorogenic H-Leu-NHMec substrate, 1536-well (AID 1619)
- Format: functional
Calls of active or inactive are those of the source.
METRIC_NAME: IC50

compound=O=C(CSc1nnc[nH]1)Nc1ccc(Br)cc1F reported_measurement="29.8 µM (active)"
compound=CCc1nnc(NC(=O)CSc2nnc(-c3ccc(NS(=O)(=O)c4ccccc4)cc3)o2)s1 reported_measurement="< 1 µM (active)"
compound=NC(=O)c1c(NC(=S)Nc2ccc(F)cc2)sc2c1CCCC2 reported_measurement="92 µM (active)"
compound="COc1ccc(NC(=O)CSC2CC(=O)N(c3ccc4c(c3)OCCO4)C2=O)cc1 (stereo not given)" reported_measurement="16.1 µM (active)"
compound="COC(=O)c1c(NC(=O)C2C3CCC(O3)C2C(=O)O)sc2c1CCCCCC2 (stereo not given)" reported_measurement="48.9 µM (active)"

###

- SYSTEM: Cytochrome P450 2C19 (Homo sapiens, UniProt P33261)
- Sequence (P33261 whole entry): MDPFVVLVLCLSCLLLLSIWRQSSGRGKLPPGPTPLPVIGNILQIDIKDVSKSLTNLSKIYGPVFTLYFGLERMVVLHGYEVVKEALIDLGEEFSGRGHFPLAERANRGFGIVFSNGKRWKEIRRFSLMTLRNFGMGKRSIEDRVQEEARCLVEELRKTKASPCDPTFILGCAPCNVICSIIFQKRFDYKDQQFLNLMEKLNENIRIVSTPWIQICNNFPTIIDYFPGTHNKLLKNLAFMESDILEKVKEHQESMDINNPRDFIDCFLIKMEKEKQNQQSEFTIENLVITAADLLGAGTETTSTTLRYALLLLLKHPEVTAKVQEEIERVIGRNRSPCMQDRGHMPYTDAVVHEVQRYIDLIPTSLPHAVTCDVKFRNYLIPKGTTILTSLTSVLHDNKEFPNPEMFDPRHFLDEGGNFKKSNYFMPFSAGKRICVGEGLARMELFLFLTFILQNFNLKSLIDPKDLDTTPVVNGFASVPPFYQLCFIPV
- EXPERIMENT: Cytochrome panel assay with activity outcomes. Panel member name: p450-cyp2c19 Compounds with AC50 equal or less than 10 uM are considered active
- Assay type: functional
METRIC_NAME: AC50

molecule="O=C(O)[C@H]1C[C@]2(C[C@H](C(=O)O)C2)C1 (some centres undefined)" metric_name=AC50 reported_measurement=inconclusive
molecule=COc1cccc(NC(=O)CSc2nc3c(c(-c4ccco4)c2C#N)CCCC3)c1 metric_name=AC50 reported_measurement=inconclusive
molecule=CN(C)Cc1ccc(C(C)(C)C)cc1-c1cc(C(C)(C)C)ccc1CN(C)C metric_name=AC50 reported_measurement=inconclusive

###

Here, each record is paired with measured IC50 data.
- SYSTEM: Large T antigen (Simian virus 40, UniProt P03070);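 also: Confirmatory-stage PubChem screen for compounds that inhibit SV40 T antigen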
- Sequence (P03070 whole entry): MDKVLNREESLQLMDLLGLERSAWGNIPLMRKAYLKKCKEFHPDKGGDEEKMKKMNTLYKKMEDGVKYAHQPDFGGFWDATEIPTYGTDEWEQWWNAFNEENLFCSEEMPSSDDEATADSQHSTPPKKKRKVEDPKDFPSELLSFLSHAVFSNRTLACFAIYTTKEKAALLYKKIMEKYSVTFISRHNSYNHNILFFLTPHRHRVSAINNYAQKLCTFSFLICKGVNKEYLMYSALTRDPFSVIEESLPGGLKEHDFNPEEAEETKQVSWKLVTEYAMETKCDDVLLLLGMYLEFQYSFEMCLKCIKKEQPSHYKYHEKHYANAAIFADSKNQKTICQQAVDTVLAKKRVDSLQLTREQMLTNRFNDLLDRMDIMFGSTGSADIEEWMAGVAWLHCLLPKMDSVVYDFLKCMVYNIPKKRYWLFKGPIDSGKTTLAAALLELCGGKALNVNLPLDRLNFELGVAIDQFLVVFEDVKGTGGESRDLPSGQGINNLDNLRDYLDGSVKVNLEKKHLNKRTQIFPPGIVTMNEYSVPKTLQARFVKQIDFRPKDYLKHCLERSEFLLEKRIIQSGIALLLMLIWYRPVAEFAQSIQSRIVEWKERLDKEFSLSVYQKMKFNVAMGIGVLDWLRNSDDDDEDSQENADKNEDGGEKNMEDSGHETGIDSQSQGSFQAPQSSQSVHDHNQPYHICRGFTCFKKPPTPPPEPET
- Format: functional, Betapolyomavirus macacae
Active and inactive are the calls of the source.
METRIC_NAME: IC50

molecule=CCn1cnc2cc(NCc3ccc(N(C)C)cc3)ccc21 reported_measurement="15.8 µM (active)"
molecule="O=C(c1nnsc1[S+]([O-])c1ccc(Cl)cc1)N1CCOCC1 (stereo not drawn)" reported_measurement="31.6 µM (active)"
molecule=Cc1ccccc1N1C(=O)NC(=O)/C(=C\c2cnn(-c3ccccc3)c2)C1=O reported_measurement="44.9 µM (active)"
molecule=Cc1cccc(N2NC(=O)/C(=C/c3ccc(-c4ccc(Cl)c(C(=O)O)c4)o3)C2=O)c1 reported_measurement="22.3 µM (active)"
molecule=Cc1cc(/C=C2\C(=O)NC(=O)N(c3ccc(Cl)cc3)C2=O)c(C)n1-c1sc2c(c1C#N)CCCC2 reported_measurement="17.2 µM (active)"
molecule=CN(C)c1ccc(NC(=O)CN2CCC(O)(c3ccccc3)CC2)cc1 reported_measurement="7.29 µM (active)"
molecule=O=C1ON=C(c2ccccc2)/C1=C/c1ccc(OS(=O)(=O)c2ccccc2)cc1 reported_measurement="67.3 µM (active)"
molecule="CCN(CC)CCN1C(=O)C(O)=C(C(=O)c2ccc(C)cc2)C1c1cccnc1 (stereo not drawn)" reported_measurement="18.9 µM (active)"

###

- SYSTEM: 26S proteasome non-ATPase regulatory subunit 14 (Homo sapiens)
- Sequence (O00487 whole entry): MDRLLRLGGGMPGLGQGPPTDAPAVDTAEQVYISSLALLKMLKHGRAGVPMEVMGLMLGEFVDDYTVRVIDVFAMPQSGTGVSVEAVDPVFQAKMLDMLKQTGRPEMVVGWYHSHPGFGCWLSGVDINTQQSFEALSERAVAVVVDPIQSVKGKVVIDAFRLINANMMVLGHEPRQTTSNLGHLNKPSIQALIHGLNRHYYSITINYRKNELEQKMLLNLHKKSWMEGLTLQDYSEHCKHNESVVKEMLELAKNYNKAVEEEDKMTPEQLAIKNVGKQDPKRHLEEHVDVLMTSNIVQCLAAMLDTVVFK
- EXPERIMENT: inhibition of proteasome subunit RPN11 – biochemical, fluorescence polarization, uHTS hits, confirmation (AID 602368)
- Type: functional
Activity calls are given as the source filed them.
# IC50 per entry
METRIC_NAME: IC50

smiles_structure=Cc1cc(N=Nc2ccccc2C(=O)O)c(C)c(C)c1O metric_name=IC50 reported_measurement="25.4 µM (active)"
smiles_structure=COc1ccc2nc(N3C(=O)/C(=C/c4ccc(Cl)cc4)NC3=S)sc2c1 metric_name=IC50 reported_measurement="13.3 µM (active)"
smiles_structure=CCc1nc2oc3ccccc3c(=O)c2c(=O)n1-c1ccc(C)cc1 metric_name=IC50 reported_measurement="24.5 µM (active)"
smiles_structure=COc1cc(/C=N/NC(=O)c2cccnc2)ccc1OCC(=O)Nc1ccccc1Cl metric_name=IC50 reported_measurement="47 µM (active)"
smiles_structure=CCc1ccc(-n2cccc2/C=C2/C(=N)N3C(=NC2=O)SN=C3S(C)(=O)=O)cc1 metric_name=IC50 reported_measurement="21.8 µM (active)"
smiles_structure=CCOc1ccc2nc(NC(=O)Cn3[nH]c(=O)c4ccccc4c3=O)sc2c1 metric_name=IC50 reported_measurement="39.7 µM (active)"

###

- EXPERIMENT: viability of uninfected HEp-2 cells – cell-based, HTS, cytotoxicity control for RSV inhibitor project, dose response (AID 2410)
- Assay type: functional
- CONDITIONS_USED: human respiratory syncytial virus
The source made the active and inactive calls.
METRIC_NAME: CC50

compound=COc1ccccc1Nc1ncc(-c2cccs2)s1 reported_measurement="43 µM (active)"
compound=COC(=O)c1ccc2c(=O)n(CCO)c(=S)[nH]c2c1 reported_measurement="25.2 µM (active)"
compound=COc1ccc(/C=N/N=C(\N)c2nonc2N)cc1OC reported_measurement="30.9 µM (active)"
compound="CCC(C)Oc1ccc(/C=C/c2nc(O)nc(O)c2[N+](=O)[O-])cc1OC (stereo not drawn)" reported_measurement="12.9 µM (active)"
compound=CNc1cc([N+](=O)[O-])ccc1OCc1ccccc1 reported_measurement="18.7 µM (active)"
compound=CCN1CCc2c(sc(NC(=O)Nc3ccc(Cl)c(Cl)c3)c2C(N)=O)C1 reported_measurement="10.4 µM (active)"
compound=O=C(NC(=S)Nc1ccc2c(c1)OCCO2)c1cccc(Br)c1 reported_measurement="34.8 µM (active)"
compound=CC(C)C(=O)N1CCN(c2c(Cl)cccc2[N+](=O)[O-])CC1 reported_measurement="16.3 µM (active)"

###

- SYSTEM: Glucose-6-phosphate 1-dehydrogenase (Homo sapiens, UniProt P11413)
- Sequence (P11413 whole entry): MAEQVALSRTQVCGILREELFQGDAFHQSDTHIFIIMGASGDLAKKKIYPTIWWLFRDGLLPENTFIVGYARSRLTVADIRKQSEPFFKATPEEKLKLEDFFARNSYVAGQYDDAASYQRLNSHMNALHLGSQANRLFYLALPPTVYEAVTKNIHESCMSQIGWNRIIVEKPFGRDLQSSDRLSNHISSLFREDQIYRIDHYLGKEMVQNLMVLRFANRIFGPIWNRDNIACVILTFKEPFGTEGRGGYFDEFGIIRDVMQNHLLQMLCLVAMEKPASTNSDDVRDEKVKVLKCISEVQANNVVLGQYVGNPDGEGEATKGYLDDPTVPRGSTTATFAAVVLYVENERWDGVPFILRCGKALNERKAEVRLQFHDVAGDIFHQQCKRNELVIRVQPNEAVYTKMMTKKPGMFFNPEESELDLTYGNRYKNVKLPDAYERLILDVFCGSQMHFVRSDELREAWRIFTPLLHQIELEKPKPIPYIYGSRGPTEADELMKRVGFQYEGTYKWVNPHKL
- EXPERIMENT: inhibition of Homo sapiens G6PD, dose series – biochemical, fluorescence, selectivity assay for P. falciparum G6PD inhibitor project, dose response (AID 504792)
- Assay type: functional
Calls of active or inactive are those of the source.
Labels: true (1) = active, false (0) = inactive

compound="Cc1ccc(/C=C/C(=O)NCC2COc3ccccc3O2)o1 (stereo not given)" label_value="false (0)"
compound=Cc1ccc(-c2c(C(=O)N/N=C/c3ccc(C)o3)nnn2-c2nonc2N)cc1 label_value="true (1)"
compound=O=C1CCC[C@@H]2[C@@H](Cc3ccccc3)[C@H](N3CCN(c4ccccc4)CC3)C[C@@H]3CCN1[C@@H]32 label_value="false (0)"
compound=CCN(CC)c1ccc(C(=C2C=CC(=[N+](CC)CC)C=C2)c2ccc(N(CC)CC)cc2)cc1 label_value="false (0)"
compound=Cc1ccc(-c2csc(NC(=O)c3ccccc3F)c2C(=O)O)cc1 label_value="false (0)"
